system: COLO 205; test: NCI tumour cell line growth inhibition, 48 h
Active and inactive are the calls of the source. No stated cut-off is given here; in the data, active = GI50 up to about 1.1 µM and inactive = higher.
Provide the reported GI50 of each item.

Consider the reported GI50 for these compounds:
Compound: CN(Cc1cnc2nc(N)nc(N)c2n1)c1ccc(C(=O)N[C@@H](CCS(=O)(=O)O)C(=O)O)cc1
GI50: > 100 µM (inactive)
//
Compound: CC(=O)[C@@]1(c2ccccc2)CC2(CCN(C)CC2)O[C@H]1C
GI50: > 100 µM (inactive)
//
Compound: CC(C(=O)NCCNC(=O)CCC(=O)N(C)O)C(=O)NCCNC(=O)CCC(=O)N(C)O
GI50: > 100 µM (inactive)
//
Compound: N#C/C(=C\c1ccc(O)c(O)c1)C(=O)NC1CCC(CC2CCC(NC(=O)/C(C#N)=C/c3ccc(O)c(O)c3)CC2)CC1 (stereo not drawn)
GI50: 1.12 µM (inactive)
//
Compound: C=C1[C@@H](OC(C)=O)[C@H]2[C@@H](OC(C)=O)[C@@](C)(OC(C)=O)C[C@]2(OC(C)=O)C(=O)[C@@H](C)/C=C/C(C)(C)C(=O)C[C@H]1OC(C)=O
GI50: 72.3 µM (inactive)

Give GI50 for all compounds that follow.
1. C=C1CCC2[C@@H](CCC3[C@]2(C)CCC[C@]3(C)C(=O)OC)C1CCO (stereo partly drawn)
2. CC(C)(CN1CCCCC1)C(=O)/C=C/c1c(Cl)cccc1Cl
3. CCCCCCc1cc2cc(C(=O)Nc3nc(C45CC6CC(CC(C6)C4)C5)cs3)c(=O)oc2cc1O

### Response
["13 µM (inactive)", "1.57 µM (inactive)", "16.7 µM (inactive)"]

---

Can you tell me GI50 for the items I'm about to list?
system: MCF7; test: NCI tumour cell line growth inhibition, 48 h
Active and inactive are the calls of the source. Cut-off read from the data, not from the text of the source: active = GI50 up to about 1.1 µM and inactive = higher.

Molecule: Oc1cc(O)c2c(c1)O[C@H](c1ccc(O)c(O)c1)[C@@H](O)C2
GI50: > 100 µM (inactive)

Would you mind giving GI50 for every molecule in the list below?
1. COc1ccc(OCC(C)(C)O)cc1
2. O/N=C1/CCCCCC1NO (centres undefined)
3. CCN(CC)CCOc1ccc(N2C(=O)c3cccc4cc([N+](=O)[O-])cc(c34)C2=O)cc1
4. CCCCC[C@H]1CC=CC(=O)O1
5. CCCOC1OC(CS(=O)(=O)O)C(O)C(O)C1O (centres undefined)
6. CN(C)C(=O)Oc1ccc(C(=S)Nc2ccccc2)cc1Br
7. COc1cc2c(cc1O)CC1c3c(cc(O)c(OC)c3-2)CCN1C (centres undefined)

### Response
> 45.3 µM (inactive)
> 100 µM (inactive)
3.56 µM (inactive)
4.89 µM (inactive)
> 100 µM (inactive)
25.8 µM (inactive)
> 100 µM (inactive)

### Prompt What value of GI50 has been recorded for this entry: Fc1ccc(NC(=S)SCc2ccc3c(c2)OCO3)cc1F
### Response 18.7 µM (inactive)

---

system: PC-3; experiment: NCI tumour cell line growth inhibition, 48 h
Activity calls are given as the source filed them. Cut-off read from the data, not from the text of the source: active = GI50 up to about 1.1 µM and inactive = higher.
For each record, write down the corresponding GI50.

Solved cases (5 shown):
Compound: NC(Cc1ccnnc1)C(=O)O (configuration not stated)
Reported metric: GI50
Endpoint result: > 100 µM (inactive)
//
Compound: NC(=O)CN1CCN(c2nc(N3CCCC3)c3nc(Cl)c(NCc4ccccc4)nc3n2)CC1
Reported metric: GI50
Endpoint result: 11.8 µM (inactive)
//
Compound: Cc1ccc(NC(=O)/C(=N\NC(N)=O)c2c(O)c3ccccc3[nH]c2=O)cc1
Reported metric: GI50
Endpoint result: > 100 µM (inactive)
//
Compound: O=C1C(Cl)=C(N2CCSCC2)C(=O)c2c(O)ccc(O)c21
Reported metric: GI50
Endpoint result: 0.1 µM (active)
//
Compound: Nc1nc(Cl)cc(OCC2(CO)CCCCC2)n1
Reported metric: GI50
Endpoint result: > 100 µM (inactive)

Batch: GI50 for all items listed.
1. Oc1cc2c3c(c1)CCCN3CCC2
2. Nc1c([N+](=O)[O-])cc2c3c(cccc13)CC2
3. O=[N+]([O-])c1ccc2[nH]nc(OCc3ccccn3)c2c1
4. COc1ccc(/N=N/C(=N/NC(=O)c2cc(Cl)ccc2C(=O)c2ccccc2)c2ccc(N(CCC#N)CCC#N)cc2C)cc1
5. CC1=NN(c2cccc(Cl)c2)C2(C1)C(Cl)C(=O)N2c1nc2ccccc2s1 (configuration not stated)
6. COc1ccc([C@@]23CCC(=O)C[C@@H]2N(C)CC3)cc1OC
7. C=C(C)C(=O)OC1C[C@H](COC(C)=O)C2CC=C(CO)C2C2OC(=O)C(=C)[C@H]12 (some centres not stated)

### Response
1: > 10 µM (inactive); 2: > 100 µM (inactive); 3: > 100 µM (inactive); 4: 11.4 µM (inactive); 5: 22.6 µM (inactive); 6: > 100 µM (inactive); 7: > 100 µM (inactive)
